- method.description: In vivo PK, p.o./i.p. dosing
- condition.summary: male, Sprague-Dawley, rat, plasma, po, 3 mg/kg
I'd appreciate it if you could supply Tmax at 1 h values for the items below.
Respond with the bare value in min.

Data request, read-out Tmax at 1 h, for COCCNc1ccc(CN(CC2CC2)C(=O)c2ccc(S(=O)(=O)Nc3ccccc3)cc2)nc1
24

Item: O=C(c1ccc(S(=O)(=O)Nc2ccccc2)cc1)N(Cc1ccc(NCCO)cn1)CC1CC1
24

Item: CCCCN(Cc1ccc2[nH]ccc2c1)C(=O)c1ccc(S(=O)(=O)Nc2ccccc2)cc1
60

###

- method.description: In vivo PK, i.v. dosing
- condition.summary: male, Sprague-Dawley, rat, plasma, iv, 0.5 mg/kg
measurement.label: AUC(0-inf) at 1 h
Quick note: unit goes after the number.

Data request, read-out AUC(0-inf) at 1 h, for COCCNc1ccc(CN(CC2CC2)C(=O)c2ccc(S(=O)(=O)Nc3ccccc3)cc2)nc1 [Compound 75]
22.6 ng·h/mL

Each recorded value in this set is attributed to paper PMC11726654.
